target: ΔF508-CFTR (Homo sapiens, UniProt P13569, DEL508-508); construct: host or cells: CFBE41o-, doxycycline-inducible; assay: CFTR cell surface levels using HRP-tagged ΔF508-CFTR expressing CFBE cells, in the presence of a co-corrector; format: cell-based; conditions: HRP-tagged ΔF508-CFTR expressing CFBE cells, in the presence of 3 μM co-corrector
Sequence (P13569 with tags, fused parts or gaps DEL508-508): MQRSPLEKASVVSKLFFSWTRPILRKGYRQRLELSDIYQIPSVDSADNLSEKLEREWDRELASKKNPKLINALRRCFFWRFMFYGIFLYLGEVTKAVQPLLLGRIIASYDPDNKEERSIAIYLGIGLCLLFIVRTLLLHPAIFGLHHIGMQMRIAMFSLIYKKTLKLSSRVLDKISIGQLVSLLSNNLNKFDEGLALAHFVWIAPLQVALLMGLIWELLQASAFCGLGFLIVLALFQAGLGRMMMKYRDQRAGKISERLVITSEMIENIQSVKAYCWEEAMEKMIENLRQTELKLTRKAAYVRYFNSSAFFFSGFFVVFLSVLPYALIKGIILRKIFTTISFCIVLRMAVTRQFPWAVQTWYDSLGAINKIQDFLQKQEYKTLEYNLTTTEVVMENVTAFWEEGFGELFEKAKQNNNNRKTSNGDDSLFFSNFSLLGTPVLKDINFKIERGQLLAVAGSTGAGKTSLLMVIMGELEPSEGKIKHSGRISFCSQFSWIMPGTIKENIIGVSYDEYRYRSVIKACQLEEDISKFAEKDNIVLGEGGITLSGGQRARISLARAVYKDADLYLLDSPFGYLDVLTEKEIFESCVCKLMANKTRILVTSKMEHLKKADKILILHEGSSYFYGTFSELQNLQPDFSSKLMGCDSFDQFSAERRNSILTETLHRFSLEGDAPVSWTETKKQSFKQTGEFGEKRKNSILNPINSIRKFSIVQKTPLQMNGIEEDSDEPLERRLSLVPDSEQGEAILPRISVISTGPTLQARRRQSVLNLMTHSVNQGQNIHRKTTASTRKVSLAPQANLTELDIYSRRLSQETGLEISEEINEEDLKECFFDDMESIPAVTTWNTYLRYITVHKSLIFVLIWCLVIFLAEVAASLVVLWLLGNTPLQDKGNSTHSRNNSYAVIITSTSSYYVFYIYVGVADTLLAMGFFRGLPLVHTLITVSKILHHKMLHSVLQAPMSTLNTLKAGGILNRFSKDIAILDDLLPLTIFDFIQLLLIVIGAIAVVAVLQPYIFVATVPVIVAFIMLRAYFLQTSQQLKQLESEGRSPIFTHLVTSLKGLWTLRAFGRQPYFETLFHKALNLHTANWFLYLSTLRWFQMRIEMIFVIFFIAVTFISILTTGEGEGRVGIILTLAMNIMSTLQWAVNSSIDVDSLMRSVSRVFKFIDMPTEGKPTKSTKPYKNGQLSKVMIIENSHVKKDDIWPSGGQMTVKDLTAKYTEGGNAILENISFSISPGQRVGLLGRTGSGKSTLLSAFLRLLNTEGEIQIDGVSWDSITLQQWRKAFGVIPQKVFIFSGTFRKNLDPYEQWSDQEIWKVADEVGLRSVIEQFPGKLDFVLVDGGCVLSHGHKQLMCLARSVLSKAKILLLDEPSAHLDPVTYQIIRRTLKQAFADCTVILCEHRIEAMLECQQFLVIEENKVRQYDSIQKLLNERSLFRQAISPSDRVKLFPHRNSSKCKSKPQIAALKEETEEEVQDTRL

{"columns": ["Compound", "System tested", "Readout units", "% Activation"],
 "data": [
  ["COC1CCCN(C2CCN(c3cc(C(=O)O)nc4c3c(C3CCC3)nn4-c3ccc(F)cc3)CC2)C1 (stereo not drawn) [compound 875]", "ΔF508-CFTR (Homo sapiens, UniProt P13569, DEL508-508)", "%", 450.3],
  ["COCC1CN(c2cc(C(=O)O)nc3c2c(C)nn3-c2ccccc2)C1 [compound 294]", "ΔF508-CFTR (Homo sapiens, UniProt P13569, DEL508-508)", "%", 225.5],
  ["Cc1cccc(-n2nc(C(C)C)c3c(-c4ccc(N5CCC(C#N)CC5)nc4)cc(C(=O)O)nc32)c1 [compound 175]", "ΔF508-CFTR (Homo sapiens, UniProt P13569, DEL508-508)", "%", 522.6],
  ["CC(C)c1nn(C2CCCCC2)c2nc(C(=O)O)cc(-c3ccnn3C)c12 [compound 370]", "ΔF508-CFTR (Homo sapiens, UniProt P13569, DEL508-508)", "%", 133],
  ["CCN(CC)CCC1CCN(c2cc(C(=O)O)nc3c2c(C2CCC2)nn3-c2ccccc2)CC1 [compound 448]", "ΔF508-CFTR (Homo sapiens, UniProt P13569, DEL508-508)", "%", 387.15],
  ["Cc1nn(-c2ccccc2)c2nc(C(=O)O)cc(OCC3(CF)CC3)c12 [compound 387]", "ΔF508-CFTR (Homo sapiens, UniProt P13569, DEL508-508)", "%", 224.5],
  ["N#CC1CCN(c2ccc(-c3cc(C(=O)O)nc4c3c(C3CCC3)nn4C3CCCCC3)cc2)CC1 [compound 219]", "ΔF508-CFTR (Homo sapiens, UniProt P13569, DEL508-508)", "%", 474.5],
  ["COCCN(C)c1ccc(-c2cc(C(=O)O)nc3c2c(C(C)C)nn3C2CCCCC2)cc1 [compound 184]", "ΔF508-CFTR (Homo sapiens, UniProt P13569, DEL508-508)", "%", 377.4],
  ["CCOCCN1CCN(c2cc(C(=O)O)nc3c2c(C2CCC2)nn3-c2ccccc2)CC1 [compound 566]", "ΔF508-CFTR (Homo sapiens, UniProt P13569, DEL508-508)", "%", 365.3]
]}

---

Entries and their EC50
target: ΔF508-CFTR (Homo sapiens, UniProt P13569, DEL508-508); construct: host or cells: CFBE41o-, doxycycline-inducible; assay: CFTR cell surface levels using HRP-tagged ΔF508-CFTR expressing CFBE cells, intrinsic corrector capacity; assay type: cell-based; conditions: HRP-tagged ΔF508-CFTR expressing CFBE cells; intrinsic corrector capacity (no co-corrector); 33° C., 20 hours; read-out: EC50

{"columns": ["Molecule", "EC50, µM"],
 "data": [
  ["CS(=O)(=O)N1CCN(c2cc(C(=O)O)nc3c2c(C2CCC2)nn3-c2ccccc2)CC1", 2.85],
  ["CN1CC[C@H](Oc2cc(C(=O)O)nc3c2c(C2CCC2)nn3-c2ccccc2)C1", 3.33],
  ["O=C(O)c1cc(N2CCC(CCN3CCOCC3)CC2)c2c(C3CCC3)nn(-c3ccc(F)cc3)c2n1", 0.204],
  ["O=C(O)c1cc(N2CCN(CC3CC3)CC2)c2c(C3CCC3)nn(-c3ccccc3)c2n1", 1.35],
  ["CC(C)c1nn(C2CCCCC2)c2nc(C(=O)O)cc(OCC3CCOCC3)c12", 1.76],
  ["O=C(O)c1cc(N2CCC(N3CCCC(F)C3)CC2)c2c(C3CCC3)nn(-c3ccc(F)cc3)c2n1 (centres unmarked)", 0.591],
  ["COCCN(CCOC)c1ccc(-c2cc(C(=O)O)nc3c2c(C(C)C)nn3-c2ccnc(N3CCOCC3)c2)cn1", 0.454],
  ["CCCCOC1CCN(c2cc(C(=O)O)nc3c2c(C(C)C)nn3-c2ccc(F)cc2)CC1", 0.438]
]}

---

Quick list: EC50 per entry.
target: ΔF508-CFTR (Homo sapiens, UniProt P13569, DEL508-508); construct: host or cells: CFBE41o-, doxycycline-inducible; experiment: CFTR cell surface levels using HRP-tagged ΔF508-CFTR expressing CFBE cells, intrinsic corrector capacity; format: cell-based; details: HRP-tagged ΔF508-CFTR CFBE41o- cells, compounds alone (intrinsic corrector capacity), 20 hours at 33° C.; read-out: EC50

{"columns": ["Compound", "EC50"],
 "data": [
  ["Cc1nn(-c2ccccc2)c2nc(C(=O)O)cc(O[C@@H]3CCCN(C)C3)c12 [compound 343]", "7500 nM"],
  ["CN(C)c1ncc(-c2cc(C(=O)O)nc3c2c(C(C)(C)C)nn3C2CCCCC2)cn1 [compound 147]", "1050 nM"],
  ["CC(C)c1nn(-c2cc(N3CCOCC3)ccn2)c2nc(C(=O)O)cc(-c3ccc(N4CCOCC4)cc3)c12 [compound 241]", "3340 nM"],
  ["Cc1nn(-c2ccccc2)c2nc(C(=O)O)cc(-c3ccc(N4CCN(CCO)CC4)cc3)c12 [compound 107]", "> 10000 nM"],
  ["COCCN(C)c1ccc(-c2cc(C(=O)O)nc3c2c(C(C)C)nn3-c2cccc(N3CCOCC3)c2)cc1 [compound 188]", "636 nM"],
  ["Cc1nn(-c2ccccc2)c2nc(C(=O)O)cc(N3CCC(F)CC3)c12 [compound 297]", "2230 nM"],
  ["COC1CCN(c2cc(C(=O)O)nc3c2c(C(C)C)nn3C2CCCCC2)CC1 [compound 264]", "747 nM"],
  ["CO[C@@H]1CCN(c2cc(C(=O)O)nc3c2c(C)nn3-c2ccccc2)C1 [compound 295]", "2510 nM"],
  ["Cc1nn(-c2cccc(C(F)(F)F)c2)c2nc(C(=O)O)cc(-c3ccc(N4CCOCC4)cc3)c12 [compound 22]", "1010 nM"],
  ["Cc1cccc(-n2nc(C(C)C)c3c(N4CC5CN(C(=O)OC(C)(C)C)CC5C4)cc(C(=O)O)nc32)c1 (stereo not drawn) [compound 216]", "1010 nM"],
  ["Cc1nn(-c2ccccc2)c2nc(C(=O)O)cc(N3CCC4(CCNC4=O)C3)c12 (stereo not drawn) [compound 313]", "7500 nM"],
  ["COCC1(C)CN(c2cc(C(=O)O)nc3c2c(C)nn3-c2ccccc2)C1 [compound 289]", "2510 nM"],
  ["Cc1nn(-c2ccccc2)c2nc(C(=O)O)cc(O[C@H]3C[C@@H](N4CCCCC4)C3)c12 [compound 346]", "7500 nM"],
  ["Cc1nn(-c2ccccc2)c2nc(C(=O)O)cc(N3CCCN(S(C)(=O)=O)CC3)c12 [compound 320]", "> 10000 nM"],
  ["Cc1nn(-c2ccccc2)c2nc(C(=O)O)cc(-c3ccc(N4C[C@@H](O)[C@H](O)C4)cc3)c12 [compound 116]", "3340 nM"],
  ["CC(C)c1nn(C2CCN(CC#N)CC2)c2nc(C(=O)O)cc(-c3ccc(N4CCOCC4)cc3)c12 [compound 95]", "> 10000 nM"],
  ["Cc1nn(-c2ccccc2)c2nc(C(=O)O)cc(O[C@H]3C[C@H](N4CCCCC4)C3)c12 [compound 345]", "4170 nM"],
  ["Cc1nn(-c2ccc(OC(F)(F)F)cc2)c2nc(C(=O)O)cc(-c3ccc(N4CCOCC4)cc3)c12 [compound 31]", "522 nM"],
  ["CC(C)c1nn(C2CCCCC2)c2nc(C(=O)O)cc(-c3ccc(N4CCC(C)(C#N)CC4)nc3)c12 [compound 203]", "843 nM"],
  ["CC(C)c1nn(C2CCCC2)c2nc(C(=O)O)cc(-c3ccc(N(C)C)nc3)c12 [compound 83]", "1470 nM"],
  ["Cc1nn(-c2ccccc2)c2nc(C(=O)O)cc(N3CC4(CCOC4)C3)c12 [compound 306]", "7500 nM"],
  ["Cc1nn(-c2cccc(N(C)C)c2)c2nc(C(=O)O)cc(-c3ccc(N4CCOCC4)cc3)c12 [compound 36]", "2000 nM"],
  ["COc1cccc(-n2nc(C)c3c(-c4ccc(N5CCN(CC#N)CC5)cc4)cc(C(=O)O)nc32)c1 [compound 232]", "1680 nM"],
  ["COc1ccc(-c2cc(C(=O)O)nc3c2c(C)nn3C2CCCCC2)cc1 [compound 2]", "2650 nM"]
]}
